Listed below: amyloid nucleation score values for each entry.
Test Details: amyloid nucleation score (Sup35N fusion, yeast selection) (log enrichment); library NNK1; higher = more nucleation; inactive = no reads after selection;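 note: zero at mode of non-aggregating sequences after 7 days selection at 30°C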

Worked cases, answers included:
PDRGEKLRRLNVWNKPCFGT = 0.829
FCNWANLYGTWLMLCVGSGR = 0.712
IDEVEGIRRFGLWELRLVCP = -0.225

Provide only the value of recorded amyloid nucleation score for `MLWFSGCPRGGQRGVCESQG`
0.284

Provide only the value of recorded amyloid nucleation score for `YTQFYVLESIYRTTLCP`
0.554

Provide only the value of recorded amyloid nucleation score for `ACFWYTL`
0.024

Provide only the value of recorded amyloid nucleation score for `NFVGFL`
-0.33

Provide only the value of recorded amyloid nucleation score for `YSRNNIIHFRFISALLPEEV`
0.683

Provide only the value of recorded amyloid nucleation score for `RCELMNIEFWVKHYGSSSGF`
1.64
